Provenance of the data: paper PMC11555526

Biological target: AURKB (MV4-11^AURKB-HiBiT cells) (Homo sapiens, UniProt Q96GD4)
Construct: expressed in transfected cells; host or cells: MV4-11, lentiviral transduction (pRRL-PGK vector)
Sequence (Q96GD4 1-345 isoform Q96GD4-5): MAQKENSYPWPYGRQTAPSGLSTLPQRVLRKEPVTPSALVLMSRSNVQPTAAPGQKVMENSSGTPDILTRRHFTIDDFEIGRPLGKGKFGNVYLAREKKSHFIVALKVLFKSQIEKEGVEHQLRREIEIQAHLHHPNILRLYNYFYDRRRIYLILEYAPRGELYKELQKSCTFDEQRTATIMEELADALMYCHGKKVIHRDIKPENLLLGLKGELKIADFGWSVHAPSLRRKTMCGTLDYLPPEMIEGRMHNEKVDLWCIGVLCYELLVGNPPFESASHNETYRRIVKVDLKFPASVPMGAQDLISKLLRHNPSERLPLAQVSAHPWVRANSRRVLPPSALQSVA
Assay: HiBiT assay, AURKB degradation
Type: cell-based
Details: 6 h treatment
Recorded Dmax (maximal degradation) AURKB, one value per entry.
Answer with a number only, understood to be in %.

Entry CC(C)S(=O)(=O)c1ccccc1Nc1nc(Nc2ccc(N3CCN(C(=O)CCC(=O)Nc4cccc5c4C(=O)N(C4CCC(=O)NC4=O)C5=O)CC3)cc2)nc2[nH]cnc12 (stereo not shown) [Compound 15] has what Dmax (maximal degradation) AURKB?
33.15

Now consider O=C(CCCC(=O)Nc1cccc2c1C(=O)N(C1CCC(=O)NC1=O)C2=O)NCC(=O)N1CCN(c2ccc(Nc3nc(NC4CCCCC4)c4nc[nH]c4n3)cc2)CC1 (stereo not shown) [Compound 19] .
43.60

* * *

Target: AURKB (MV4-11^AURKB-HiBiT cells) (Homo sapiens, UniProt Q96GD4)
Construct: expressed in transfected cells; host or cells: MV4-11, lentiviral transduction (pRRL-PGK vector)
Experiment: HiBiT assay, AURKB degradation
Format: cell-based
Settings: 6 h treatment
Recorded Dmax (maximal degradation) AURKB, one value per entry.
Answer with a number only, understood to be in %.

Study these solved cases before continuing.
{"compound": "O=C1CCC(N2C(=O)c3cccc(NC(=O)COCCOCC(=O)N4CCN(c5ccc(Nc6nc(NC7CCCCC7)c7nc[nH]c7n6)cc5)CC4)c3C2=O)C(=O)N1 (centres unmarked)", "Dmax (maximal degradation) AURKB (%)": 36.10}
{"compound": "Cc1ncsc1-c1ccc(CNC(=O)[C@@H]2C[C@@H](O)CN2C(=O)[C@@H](NC(=O)CCC(=O)NCC(=O)N2CCN(c3ccc(Nc4nc(Nc5ccccc5S(=O)(=O)C(C)C)c5nc[nH]c5n4)cc3)CC2)C(C)(C)C)cc1", "Dmax (maximal degradation) AURKB (%)": 20.20}

Entry Cc1ncsc1-c1ccc(CNC(=O)[C@@H]2C[C@H](O)CN2C(=O)[C@@H](NC(=O)COCCOCC(=O)N2CCN(c3ccc(Nc4nc(Nc5ccccc5S(=O)(=O)C(C)C)c5nc[nH]c5n4)cc3)CC2)C(C)(C)C)cc1 has what Dmax (maximal degradation) AURKB?
44.00

* * *

Recorded Dmax (maximal degradation) TTK, one value per entry.
Biological target: TTK (MV4-11^HiBiT-TTK cells) (Homo sapiens)
Construct: expressed in transfected cells; host or cells: MV4-11, lentiviral transduction (pRRL-PGK-HiBiT entry vector)
Sequence (P33981 1-857): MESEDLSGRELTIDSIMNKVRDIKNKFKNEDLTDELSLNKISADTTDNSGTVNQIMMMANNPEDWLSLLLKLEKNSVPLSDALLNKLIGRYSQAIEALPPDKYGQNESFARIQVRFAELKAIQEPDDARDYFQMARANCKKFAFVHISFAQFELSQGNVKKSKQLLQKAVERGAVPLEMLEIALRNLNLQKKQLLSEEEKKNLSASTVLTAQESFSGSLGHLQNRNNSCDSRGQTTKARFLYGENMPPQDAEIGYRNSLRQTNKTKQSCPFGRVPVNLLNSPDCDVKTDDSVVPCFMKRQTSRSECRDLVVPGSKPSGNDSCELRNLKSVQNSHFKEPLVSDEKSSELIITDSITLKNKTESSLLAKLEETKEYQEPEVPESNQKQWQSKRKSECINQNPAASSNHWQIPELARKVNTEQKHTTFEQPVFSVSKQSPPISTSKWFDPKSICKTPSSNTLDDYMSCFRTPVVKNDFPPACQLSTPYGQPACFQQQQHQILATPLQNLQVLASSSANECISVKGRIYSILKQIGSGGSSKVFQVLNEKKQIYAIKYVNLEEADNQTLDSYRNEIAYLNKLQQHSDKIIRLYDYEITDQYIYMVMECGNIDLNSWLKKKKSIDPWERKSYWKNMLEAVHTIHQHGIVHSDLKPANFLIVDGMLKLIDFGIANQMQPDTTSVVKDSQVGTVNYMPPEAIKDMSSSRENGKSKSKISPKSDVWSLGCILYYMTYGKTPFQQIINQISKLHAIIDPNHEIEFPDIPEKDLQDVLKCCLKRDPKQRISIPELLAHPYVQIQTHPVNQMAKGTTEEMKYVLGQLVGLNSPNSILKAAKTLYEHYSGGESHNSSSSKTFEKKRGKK
Experiment: HiBiT assay, TTK degradation
Type: cell-based
Details: 6 h treatment, MV4-11^HiBiT-TTK cells

Study these solved cases before continuing.
{"compound": "COc1cc(N2CCC(OCC(=O)NCCOCCOCCNc3cccc4c3C(=O)N(C3CCC(=O)NC3=O)C4=O)CC2)ccc1Nc1nc(Nc2ccccc2S(=O)(=O)C(C)C)c2nc[nH]c2n1 (stereo not shown) [Compound 38]", "Dmax (maximal degradation) TTK": "16.10%"}
{"compound": "Cc1ncsc1-c1ccc(CNC(=O)[C@@H]2C[C@@H](O)CN2C(=O)[C@@H](NC(=O)CCC(=O)NCCCNC(=O)CCC(=O)N2CCN(c3ccc(Nc4nc(NC5CCCCC5)c5nc[nH]c5n4)cc3)CC2)C(C)(C)C)cc1 [Compound 56]", "Dmax (maximal degradation) TTK": "34.20%"}

Provide value of Dmax (maximal degradation) TTK for this record tested with TTK (MV4-11^HiBiT-TTK cells) (Homo sapiens): CC(C)S(=O)(=O)c1ccccc1Nc1nc(Nc2ccc(N3CCN(C(=O)CCC(=O)NCCNc4cccc5c4C(=O)N(C4CCC(=O)NC4=O)C5=O)CC3)cc2)nc2[nH]cnc12 (stereo not shown) [Compound 30]
27.20%

* * *

Biological target: AURKA (MV4-11^AURKA-HiBiT cells) (Homo sapiens, UniProt O14965)
Construct: expressed in transfected cells; host or cells: MV4-11, lentiviral transduction
Sequence (O14965 1-403): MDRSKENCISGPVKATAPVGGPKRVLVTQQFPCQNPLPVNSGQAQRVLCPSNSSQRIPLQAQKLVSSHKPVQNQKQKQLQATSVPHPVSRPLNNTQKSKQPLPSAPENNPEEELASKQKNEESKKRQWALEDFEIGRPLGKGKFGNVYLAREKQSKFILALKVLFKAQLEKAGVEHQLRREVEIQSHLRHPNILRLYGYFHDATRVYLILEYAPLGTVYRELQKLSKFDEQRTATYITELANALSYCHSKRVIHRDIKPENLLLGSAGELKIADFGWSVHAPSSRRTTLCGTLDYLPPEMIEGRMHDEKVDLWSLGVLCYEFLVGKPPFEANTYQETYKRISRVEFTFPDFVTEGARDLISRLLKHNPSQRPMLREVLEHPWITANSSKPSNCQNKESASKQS
Assay: HiBiT assay, AURKA degradation
Assay type: cell-based
Conditions: 6 h treatment, MV4-11^AURKA-HiBiT cells; read-out: Dmax (maximal degradation) AURKA
Recorded Dmax, one value per entry.
Answer with a number only, understood to be in %.

{"compound": "CC(C)S(=O)(=O)c1ccccc1Nc1nc(Nc2ccc(N3CCNCC3)cc2)nc2[nH]cnc12", "target of assay": "AURKA (MV4-11^AURKA-HiBiT cells) (Homo sapiens, UniProt O14965)", "Dmax, %": 61.9}
{"compound": "COc1cc(N2CCC(O)CC2)ccc1Nc1nc(Nc2ccccc2S(=O)(=O)C(C)C)c2nc[nH]c2n1 [MPS1-IN-3, reference compound]", "target of assay": "AURKA (MV4-11^AURKA-HiBiT cells) (Homo sapiens, UniProt O14965)", "Dmax, %": 41.7}
{"compound": "c1nc2c(NC3CCCCC3)nc(Nc3ccc(N4CCNCC4)cc3)nc2[nH]1 [azareversine, reference compound]", "target of assay": "AURKA (MV4-11^AURKA-HiBiT cells) (Homo sapiens, UniProt O14965)", "Dmax, %": 52.6}

Consider the additional compound presented here.
Entry COc1cc(N2CCNCC2)ccc1Nc1nc(Nc2ccccc2S(=O)(=O)C(C)C)c2nc[nH]c2n1 has what Dmax?
40.1

* * *

Tested on: MV4-11 cells (naive)
Assay: alamarBlue cell viability assay
Format: cell-based, human
Conditions: 72 h, MV4-11 cells; read-out: EC50 cytotoxicity
Recorded EC50, one value per entry.

{"compound": "O=C(CCCC(=O)Nc1cccc2c1C(=O)N(C1CCC(=O)NC1=O)C2=O)NCC(=O)N1CCN(c2ccc(Nc3nc(NC4CCCCC4)c4nc[nH]c4n3)cc2)CC1 (centres unmarked)", "endpoint name": "EC50", "observed": "1400 nM"}

Consider the additional compound presented here.
Entry CN1C(=O)CCC(N2C(=O)c3cccc(NC(=O)CCCC(=O)NCC(=O)N4CCN(c5ccc(Nc6nc(NC7CCCCC7)c7nc[nH]c7n6)cc5)CC4)c3C2=O)C1=O (centres unmarked) has what EC50?
700 nM

* * *

Recorded DC50, one value per entry.
Target: AURKB (MV4-11^AURKB-HiBiT cells) (Homo sapiens, UniProt Q96GD4)
Construct: expressed in transfected cells; host or cells: MV4-11, lentiviral transduction (pRRL-PGK vector)
Experiment: HiBiT assay, AURKB degradation
Assay type: cell-based
Details: 6 h treatment, read-out: DC50 (half-maximal degradation concentration) AURKB
Description: The effects of the synthesized compounds on AURKA, AURKB, and TTK mitotic kinases were then assessed in cellular systems. For this, HiBiT cell lines were generated for all three mitotic kinases. […] The cells stably expressing HiBiT-tagged protein were seeded into 96-well plates and treated with serial dilutions of compounds for the indicated time points. […] Luminescence was measured on a GloMax 96 Microplate Luminometer (Promega) or a Tecan Spark Multiplate reader (Tecan). […]
Please format your answer as a value with the unit trailing.

Study these solved cases before continuing.
{"compound": "CN1C(=O)CCC(N2C(=O)c3cccc(NC(=O)CCCC(=O)NCC(=O)N4CCN(c5ccc(Nc6nc(NC7CCCCC7)c7nc[nH]c7n6)cc5)CC4)c3C2=O)C1=O (stereo not drawn)", "DC50": "363 nM"}
{"compound": "O=C1CCC(N2C(=O)c3cccc(NC(=O)CCCC(=O)N4CCN(c5ccc(Nc6nc(NC7CCCCC7)c7nc[nH]c7n6)cc5)CC4)c3C2=O)C(=O)N1 (stereo not drawn)", "DC50": "380 nM"}

Consider the additional compound presented here.
Entry c1nc2c(NC3CCCCC3)nc(Nc3ccc(N4CCNCC4)cc3)nc2[nH]1 [azareversine, reference compound] has what DC50?
79.3 nM
